target: rat CB2 receptor (rCB2) (Rattus norvegicus); experiment: cell-based; type: cell-based; conditions: agonist or inverse agonist at rCB2
readout.name: +/− RCB2

# example entries with known answers
>>> print(df.to_string())
                            smiles_notation                             tested_system  observed_value
0  CNC(=O)[C@@H](NC(=O)c1nc(-c2cc(Cl)ccc2OC)n2c1CN(C)CCC2)C(C)(C)C  rat CB2 receptor (rCB2) (Rattus norvegicus)               +
1  CNC(=O)[C@@H](NC(=O)c1nc(-c2ccccc2)n2c1CN(S(=O)(=O)c1ccc(Cl)cc1)CC2)C(C)(C)C  rat CB2 receptor (rCB2) (Rattus norvegicus)               −
2  CNC(=O)[C@@H](NC(=O)c1nc(-c2ccccc2C(F)(F)F)n2c1CN(C)CCC2)C(C)(C)C  rat CB2 receptor (rCB2) (Rattus norvegicus)               +
3  CNC(=O)[C@@H](NC(=O)c1nc(-c2ccoc2)n2c1CNCC2)C(C)(C)C  rat CB2 receptor (rCB2) (Rattus norvegicus)               −
4  CN1CCCn2c(-c3cc(Cl)ccc3F)nc(C(=O)N[C@H](C(N)=O)C(C)(C)C)c2C1  rat CB2 receptor (rCB2) (Rattus norvegicus)               +
5  CC(C)CN1CCn2c(-c3ccccc3)nc(C(=O)N[C@@H](C)c3ccccc3)c2C1  rat CB2 receptor (rCB2) (Rattus norvegicus)               −

Now examine the next entry.
Quote +/− RCB2 reported for O=C(NC1CCCCC1)c1nc(-c2ccccc2)n2c1CN(C(=O)c1ccoc1)CC2 please.
−

* * *

target: rat CB2 receptor (rCB2) (Rattus norvegicus); assay: cell-based; type: cell-based; conditions: agonist or inverse agonist at rCB2
readout.name: +/− RCB2

# example entries with known answers
                                   compound  readout_name  observed_value
0  CNC(=O)[C@@H](NC(=O)c1nc(-c2cccnc2)n2c1CN(C)CC2)C(C)(C)C [Compound 252]      +/− RCB2               +
1  CNC(=O)[C@@H](NC(=O)c1nc(-c2csc3ccccc23)n2c1CN(C)CCC2)C(C)(C)C [Compound 354]      +/− RCB2               −
2  CNC(=O)[C@@H](NC(=O)c1nc(-c2ccccc2)n2c1CNCC2)C(C)(C)C [Compound 2]      +/− RCB2               +
3  CC(C)(C)OC(=O)N1CCn2c(-c3ccccc3)nc(C(=O)NC3C4(C)CCC(C4)C3(C)C)c2C1 (stereo not shown) [Compound 30]      +/− RCB2               −
4  Cc1noc([C@@H](NC(=O)c2nc(-c3ccccc3)n3c2CN(C)CC3)C(C)(C)C)n1 [Compound 87]      +/− RCB2               −

Batch of 2 compounds: report +/− RCB2 for each.
1. CN1CCn2c(-c3ccc(Cl)cc3F)nc(C(=O)Nc3ccc(S(=O)(=O)N4CCOCC4)cc3)c2C1 [Compound 219]
2. CNC(=O)[C@@H](NC(=O)c1nc(-c2ccc(OC(F)(F)F)cc2)n2c1CN(C)CCC2)C(C)(C)C [Compound 339]

−
−

* * *

target: human CB1 receptor (hCB1) (Homo sapiens); assay: cell-based; format: cell-based
Sequence (P21554 whole entry): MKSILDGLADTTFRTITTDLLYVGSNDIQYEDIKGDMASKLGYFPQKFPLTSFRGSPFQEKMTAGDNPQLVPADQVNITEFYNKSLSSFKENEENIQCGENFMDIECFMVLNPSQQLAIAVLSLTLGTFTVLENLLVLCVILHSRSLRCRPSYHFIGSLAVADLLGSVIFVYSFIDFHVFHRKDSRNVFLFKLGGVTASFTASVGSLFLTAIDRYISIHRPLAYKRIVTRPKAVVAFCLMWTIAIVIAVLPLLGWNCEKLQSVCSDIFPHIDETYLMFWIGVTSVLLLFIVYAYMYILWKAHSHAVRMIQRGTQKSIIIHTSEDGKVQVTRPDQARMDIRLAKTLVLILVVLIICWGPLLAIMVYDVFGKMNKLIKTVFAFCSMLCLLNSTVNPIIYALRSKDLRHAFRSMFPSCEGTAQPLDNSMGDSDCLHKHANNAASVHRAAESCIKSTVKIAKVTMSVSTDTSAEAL
pEC50: −log10 of the molar value.
readout.name: pEC50

>>> df
                                   compound  readout_name  observed_value
0  CC(C)CN1CCn2c(-c3ccccc3)nc(C(=O)NN3CCCCC3)c2C1 [Compound 155]         pEC50          < 5.00

Batch of 7 compounds: report pEC50 for each.
1. CNC(=O)[C@@H](NC(=O)c1nc(-c2ccc(C(=O)N3CCOCC3)cc2)n2c1CN(C)CCC2)C(C)(C)C [Compound 401]
2. C[C@@H](NC(=O)c1nc(-c2ccccc2)n2c1CN(C(=O)C1CC1)CC2)C1CCCCC1 [Compound 132]
3. CNC(=O)[C@@H](NC(=O)c1nc(-c2cccc(F)c2F)n2c1CN(C)CCC2)C(C)(C)C [Compound 369]
4. CNC(=O)[C@@H](NC(=O)c1nc(-c2cccc(OC)c2F)n2c1CN(C)CCC2)C(C)(C)C [Compound 346]
5. CNC(=O)[C@@H](NC(=O)c1nc(-c2cccc(F)c2F)n2c1CN(C)CC2)C(C)(C)C [Compound 261]
6. CC(C)(C)[C@@H](CO)NC(=O)c1nc(-c2ccc(Cl)cc2)n2c1CN(CCO)CC2 [Compound 162]
7. CNC(=O)[C@@H](NC(=O)c1nc(-c2ccccc2C(C)C)n2c1CN(C)CCC2)C(C)(C)C [Compound 403]

< 5.00
< 5.00
< 5.00
< 5.00
< 5.00
< 5.00
< 5.00

Batch of 8 compounds: report pEC50 for each.
1. CNC(=O)[C@@H](NC(=O)c1nc(-c2ccccc2)n2c1CN(C(=O)OC(C)(C)C)CC2)C(C)(C)C [Compound 1]
2. CNC(=O)[C@@H](NC(=O)c1nc(Br)n2c1CN(C)CC2)C(C)(C)C [Compound 203]
3. CNC(=O)[C@@H](NC(=O)c1nc(CCc2ccsc2)n2c1CN(C)CCC2)C(C)(C)C [Compound 495]
4. CNC(=O)[C@@H](NC(=O)c1nc(-c2cccc(C(F)(F)F)c2)n2c1CN(C)CCC2)C(C)(C)C [Compound 438]
5. Cc1cnc(CNC(=O)c2nc(-c3ccccc3)n3c2CN(C)CC3)cn1 [Compound 237]
6. CNC(=O)[C@@H](NC(=O)c1nc(-c2cccc(C(F)(F)F)c2F)n2c1CN(C)CCC2)C(C)(C)C [Compound 364]
7. CC(=O)N1CCn2c(-c3ccccc3)nc(C(=O)NN3CCCCC3)c2C1 [Compound 175]
8. CNC(=O)[C@@H](NC(=O)c1nc(-c2ccc(F)c(C(=O)O)c2)n2c1CN(C)CCC2)C(C)(C)C [Compound 411]

1. < 5.00
2. < 5.00
3. < 5.00
4. < 5.00
5. < 5.00
6. < 5.00
7. < 5.00
8. < 5.00

* * *

molecular target: rat CB2 receptor (rCB2) (Rattus norvegicus, UniProt Q9QZN9); assay: cell-based; type: cell-based; conditions: agonist or inverse agonist at rCB2
readout.name: +/− RCB2

In [3]: df
Out[3]:
                                   compound  readout_name  observed_value
0  CC(C)(C)[C@@H](CO)NC(=O)c1nc(-c2ccccc2)n2c1CNCC2 [Compound 22]      +/− RCB2               −
1  CNC(=O)[C@@H](NC(=O)c1nc(-c2cscc2C)n2c1CN(C)CCC2)C(C)(C)C [Compound 352]      +/− RCB2               +
2  CNC(=O)[C@@H](NC(=O)c1nc(C2=CCNCC2)n2c1CN(C)CCC2)C(C)(C)C [Compound 460]      +/− RCB2               +
3  CNC(=O)[C@H](CC(C)C)NC(=O)c1nc(-c2ccc(Cl)cc2F)n2c1CN(C)CC2 [Compound 276]      +/− RCB2               −
4  CN1CCCn2c(-c3ccc(F)cc3F)nc(C(=O)N[C@H](C(N)=O)C(C)(C)C)c2C1 [Compound 578]      +/− RCB2               +
5  CC(C)NC(=O)[C@@H](NC(=O)c1nc(-c2ccccc2)n2c1CN(C)CCC2)C(C)(C)C [Compound 472]      +/− RCB2               +
6  CNC(=O)[C@@H](NC(=O)c1nc(-c2ccc(Cl)cc2F)n2c1CN(c1ncccn1)CCC2)C(C)(C)C [Compound 482]      +/− RCB2               +

Now examine the next entry.
Quote +/− RCB2 reported for CN1CCn2c(-c3ccccc3)nc(C(=O)N[C@H](C(=O)N(C)C)C(C)(C)C)c2C1 [Compound 79] please.
−

* * *

Molecular target: UniProtKB Q9QZN9
Sequence (Q9QZN9 1-360): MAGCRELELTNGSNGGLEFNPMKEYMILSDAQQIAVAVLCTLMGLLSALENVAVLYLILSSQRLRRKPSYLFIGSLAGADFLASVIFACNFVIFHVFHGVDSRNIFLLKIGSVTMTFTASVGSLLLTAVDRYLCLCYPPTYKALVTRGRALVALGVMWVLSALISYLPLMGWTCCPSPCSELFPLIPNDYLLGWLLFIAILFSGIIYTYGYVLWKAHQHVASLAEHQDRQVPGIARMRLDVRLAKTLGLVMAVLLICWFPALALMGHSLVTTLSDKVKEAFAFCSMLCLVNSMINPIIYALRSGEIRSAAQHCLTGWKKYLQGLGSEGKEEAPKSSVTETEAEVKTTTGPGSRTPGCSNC
Assay: cell-based
Format: cell-based
Details: agonist or inverse agonist at rCB2
readout.name: +/− RCB2

>>> df
                            smiles_notation  observed_value
0   O=C(NCC1CCOCC1)c1nc(-c2ccccc2)n2c1CNCC2               −
1  CNC(=O)[C@@H](NC(=O)c1nc(-c2cc(F)cc(OC)c2)n2c1CN(C)CCC2)C(C)(C)C               −
2  CNC(=O)[C@@H](NC(=O)c1nc(-c2ccccc2)n2c1CN(C1CC1)CC2)C(C)(C)C               −
3  CNC(=O)[C@@H](NC(=O)c1nc(CCC2CC2)n2c1CN(C)CCC2)C(C)(C)C               +
